Catalogue of logP values
- method: Octanol-water partition coefficient, log P of the compound
- Format: physicochemical
- measurement-setup: read-out: logP
# respond with the number and nothing more

Solved cases below.
1. CC(C)NNC(=O)c1cccs1
1.61
2. CC(C)NNC(=O)c1ccc(O)cc1
1.46
3. CC(C)NNC(=O)c1ccsc1
1.61
4. COc1ccc(C(=O)NNC(C)C)cc1
2.11

# molecule `CC(C)NNC(=O)c1ccccn1` ; its logP = 0.32

# molecule `Cc1noc(C)c1C(=O)NNC(C)C` ; its logP = 1.2

# molecule `CC(C)NNC(=O)c1ccc(C(C)C)cc1` ; its logP = 3.66

# molecule `CC(C)NNC(=O)c1cccc(Cl)c1` ; its logP = 2.84

# molecule `CC(C)NNC(=O)c1ccccc1N` ; its logP = 0.9

###

- method: Octanol-water partition coefficient, log P of the compound
- Type: physicochemical
- measurement-setup: read-out: logP
Catalogue of logP values
# respond with the number and nothing more

Solved cases below.
1. CC(C)NNC(=O)c1ccccc1O
1.46
2. CC(C)NNC(=O)c1cccc([N+](=O)[O-])c1
1.85
3. Cc1ncc(C(=O)NNC(C)C)c(C)n1
-0.4
4. Cc1ccc(C(=O)NNC(C)C)cc1C
3.25
5. Cc1ncsc1C(=O)NNC(C)C
0.44
6. CC(C)NNC(=O)c1ccc(N)cc1
0.9
7. CC(C)NNC(=O)c1ccc(Cl)cc1
2.84

In the following, a different compound is considered.
# compound `CC(C)NNC(=O)c1cccnc1` ; its logP = 0.32

These measurements were taken from ChEMBL document CHEMBL3272105.
